meta.source: ChEMBL document CHEMBL3507680

cytotoxicity at 70.5 h for assorted compounds
test: Human HepG2 cell viability assay in 384 well format; assay type: toxicity, cell-based; design: dose 125 nL, time 70.5 hour; concentration not given beside the values; settings: HepG2 cells, read-out: Inhibition
Write the value in % as a bare number.

// below: answered compounds
>  <Compound>
CS(=O)(=O)Cc1ccc(CNC(=O)N2CCC(C(N)=O)C2)cc1 (configuration not stated)

>  <Units Of Measure>
%

>  <Reading>
-1.33

$$$$
>  <Compound>
CCc1cc(=O)[nH]c(-c2ccc(NCCc3ccc(O)cc3)nc2)n1

>  <Units Of Measure>
%

>  <Reading>
-3.24

$$$$
>  <Compound>
Cc1ccc2c(n1)N(Cc1cccnc1)CCN(C(=O)C1CCC1)C2

>  <Units Of Measure>
%

>  <Reading>
-12.9

$$$$
>  <Compound>
CC(Nc1nccc(CCC(F)(F)F)n1)c1nc(-c2ccncc2)no1 (configuration not stated)

>  <Units Of Measure>
%

>  <Reading>
-13.3

$$$$
>  <Compound>
CC(C)CC(CCO)CNC(=O)N1CCOC2(CCCC2)C1 (configuration not stated)

>  <Units Of Measure>
%

>  <Reading>
-1.95

$$$$

Value lookup for cytotoxicity at 70.5 h; key = CNc1ccc(CC2CCCN(C(=O)c3c(C)noc3C)C2)nn1 (configuration not stated) -13.8

Value lookup for cytotoxicity at 70.5 h; key = `CC(C)NC(=O)N1CC(=O)c2sc(NC3CCCCC3)nc2C1` 3.79

Value lookup for cytotoxicity at 70.5 h; key = COc1cccc(CN2CCC(c3cc(O)nc(C)n3)C2)c1 (configuration not stated) -3.89

Value lookup for cytotoxicity at 70.5 h; key = `Cc1cnc(C(=O)N(CCN(C)C)Cc2ccc(Cl)cc2)cn1` -6.08
